The values you see were collected from PubChem BioAssay AID1259407.

system: CCRIS mutagenicity, Ames/micronucleus/aberration tests; experiment: CCRIS mutagenicity studies; conditions: Test System: AMES SALMONELLA TYPHIMURIUM; Strain/Indicator: TA1535; Metabolic Activation: RAT LIVER S-9, PHENOBARBITAL AND BETA-NAPHTHOFLAVONE; Method: PREINCUBATION
Active and inactive are the calls of the source. No rule for the calls is given here.
Outcome codes: true = active, false = inactive

>>> group("Cc1ccccn1")
"false"
>>> group("O=S(=O)(O)c1cc(S(=O)(=O)O)c2cc(O)ccc2c1")
"false"
>>> group("CC(C)Br")
"true"
>>> group("CC(CO)(CO)CO")
"false"
>>> group("CCOS(=O)(=O)OCC")
"true"
>>> group("CC(C)c1ccccc1O")
"false"
>>> group("Cc1ccc(N)cc1")
"false"
>>> group("O=C1C(Cl)=C(Cl)C(=O)c2ccccc21")
"false"
>>> group("Oc1ccccc1")
"false"
>>> group("Cc1cc(-c2ccc(N=C=O)c(C)c2)ccc1N=C=O")
"false"
>>> group("CCOC(=O)CC(C)=O")
"false"
>>> group("O=S(=O)(c1ccc(O)cc1)c1ccc(O)cc1")
"false"
>>> group("C=C(C)C(=O)OCCN(C)C")
"false"
>>> group("NCCCCCCCCCCCC(=O)O")
"false"
